- studySystem: NPFFR1-chimera (Q37^NtL/I293^6.58S/T307^7.31N) (Homo sapiens, UniProt Q9GZQ6, I293S/Q37L/T307N)
- Construct: expressed in transfected cells; host or cells: HEK293T
- Sequence (Q9GZQ6 whole entry Q37L/I293S/T307N): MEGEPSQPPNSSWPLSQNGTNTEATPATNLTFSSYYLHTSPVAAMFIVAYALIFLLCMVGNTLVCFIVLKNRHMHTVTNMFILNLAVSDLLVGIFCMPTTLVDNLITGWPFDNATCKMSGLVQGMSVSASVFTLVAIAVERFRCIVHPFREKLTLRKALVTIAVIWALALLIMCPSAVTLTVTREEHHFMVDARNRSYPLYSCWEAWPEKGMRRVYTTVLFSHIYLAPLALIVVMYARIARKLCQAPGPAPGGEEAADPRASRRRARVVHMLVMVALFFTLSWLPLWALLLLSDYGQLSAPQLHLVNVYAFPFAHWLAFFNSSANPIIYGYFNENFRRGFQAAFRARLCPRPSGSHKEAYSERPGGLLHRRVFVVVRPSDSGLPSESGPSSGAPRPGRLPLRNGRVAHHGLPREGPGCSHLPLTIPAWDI
- testDescription: GloSensor forskolin-stimulated cAMP assay, NPFFR1 triple mutant (chimera Q37NtL/I2936.58S/T3077.31N)
- Assay type: cell-based
- cond: HEK293T, 0.5 μM forskolin, three independent experiments
Ends that are not written are not given here.
measurementType: pEC50
One number for each entry, as −log10 of the molar value.

In: State the recorded pEC50 for this entry: MPHSFANLPLRF-NH2 [GnIH]
Out: 7.00

----------
- studySystem: human NPFFR1 (Homo sapiens)
- Construct: expressed in transfected cells; host or cells: HEK293T (pcDNA3.1 NPFFR1)
- Sequence (Q9GZQ6 whole entry): as the sequence (Q9GZQ6 whole entry Q37L/I293S/T307N) above, with L37Q, S293I, N307T counted along it
- testDescription: GloSensor forskolin-stimulated cAMP assay, NPFFR1 wild-type
- Type: cell-based
Ends that are not written are not given here.
measurementType: EC50 (nM)
Numbers only, in nM.

In: What value of EC50 has been recorded for this entry: AGEGLNSQFWSLAAPQRF-NH2 [NPAF]
Out: 200

----------
Hi there, I'd appreciate the recorded EC50 for every entry that follows.
- studySystem: human NPFFR2 (Homo sapiens)
- Construct: expressed in transfected cells; host or cells: HEK293T (pcDNA3.1 NPFFR2)
- Sequence (Q9Y5X5 103-522): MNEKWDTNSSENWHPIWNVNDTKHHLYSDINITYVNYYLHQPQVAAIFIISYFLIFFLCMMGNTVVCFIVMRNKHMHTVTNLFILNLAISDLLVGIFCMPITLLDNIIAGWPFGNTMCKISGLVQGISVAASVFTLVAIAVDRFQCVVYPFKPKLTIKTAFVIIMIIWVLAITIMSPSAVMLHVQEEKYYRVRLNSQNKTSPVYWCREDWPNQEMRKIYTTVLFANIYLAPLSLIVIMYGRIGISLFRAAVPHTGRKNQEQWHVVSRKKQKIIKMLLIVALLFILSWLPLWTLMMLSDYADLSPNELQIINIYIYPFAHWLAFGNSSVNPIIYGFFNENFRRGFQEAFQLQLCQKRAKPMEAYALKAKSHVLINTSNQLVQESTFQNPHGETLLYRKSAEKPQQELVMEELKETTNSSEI
- testDescription: GloSensor forskolin-stimulated cAMP assay, NPFFR2 wild-type
- Type: cell-based
- cond: NPFFR2 wild-type (100% DNA treated for hNPSF); HEK293T; 0.5 μM forskolin; three independent experiments
Ends that are not written are not given here.

Working through the 2 substances below one at a time, give EC50 for each.
1. MPHSFANLPLRF-NH2 [GnIH]
2. AGEGLNSQFWSLAAPQRF-NH2 [NPAF]

Out:
1: 158 nM; 2: 6.31 nM

Values compiled from paper PMC12069643.
